Listing of recorded growth inhibition by drug alone by entry.
Tested on: U-2932
Assay: growth inhibition by drug alone (1 - RLU/untreated control) (fraction); higher = stronger inhibition
Conditions: 1000 nM; time (day): 4; 177Lu-lilotomab satetraxetan 0 ug/ml

compound	growth inhibition by drug alone
N#Cc1ccc(C(c2ccc(C#N)cc2)n2cncn2)cc1 [Letrozole]	-0.0542
COc1ccc(/C=C\c2cc(OC)c(OC)c(OC)c2)cc1O [Combretastatin A4]	0.975
CNC(=O)[C@@H](NC(=O)[C@H](CC(C)C)[C@H](O)C(=O)NO)C(C)(C)C [Marimastat]	-0.117
NC(=O)c1ccc(-c2nc(-c3ccccn3)c(-c3ccc4c(c3)OCO4)[nH]2)cc1	0.069
O=C1CN2Cc3c(ccc(Cl)c3Cl)N=C2N1 [Anagrelide]	0.0873

* * *

Test system: RIVA
Assay: growth inhibition by drug alone (1 - RLU/untreated control) (fraction); higher = stronger inhibition
Conditions: 100 nM; time (day): 4; 177Lu-lilotomab satetraxetan 0 ug/ml
Counter-ions that a name gives are not always drawn.
Decision: growth inhibition by drug alone >= -0.2 yields yes, all other cases yield no.

molecule	discreteLabel
CCN1CCN(Cc2ccc(-c3cc4c(N[C@H](C)c5ccccc5)ncnc4[nH]3)cc2)CC1	yes
Cc1oc(S(=O)(=O)N2CCCCC2)cc1NC(=O)Nc1ccccc1	yes
O=c1c(O)c(-c2ccc(O)c(O)c2)oc2cc(O)cc(O)c12 [Quercetin (Sophoretin)]	no
COC(=O)C1=C(C)NC(C)=C(C(=O)OCCCN2CCC(c3ccccc3)(c3ccccc3)CC2)[C@H]1c1cccc([N+](=O)[O-])c1 [S-(+)-Niguldipine hydrochloride]	no
CCN(CC)CCOc1ccc(Nc2ncc3cc(-c4c(Cl)cccc4Cl)c(=O)n(C)c3n2)cc1	yes
CNC(=O)c1ccc(C)c(-n2c(C)cc(OCc3ccc(F)cc3F)c(Br)c2=O)c1	yes
CC[C@@H]1/C=C(\C)C[C@H](C)C[C@H](OC)[C@H]2O[C@@](O)(C(=O)C(=O)N3CCCC[C@H]3C(=O)O[C@H](/C(C)=C/[C@@H]3CC[C@H](Cl)[C@H](OC)C3)[C@H](C)[C@@H](O)CC1=O)[C@H](C)C[C@@H]2OC [Pimecrolimus]	yes
O=C(Nc1ccc(OC(F)(F)F)cc1)c1sccc1NCc1ccnc2ccccc12	no
O=c1oc2c(O)c(O)cc3c(=O)oc4c(O)c(O)cc1c4c23 [Ellagic acid]	yes
COc1ccccc1OCC(O)CN1CCN(CC(=O)Nc2c(C)cccc2C)CC1 (stereo not drawn) [Ranolazine (Ranexa)]	yes
CNC(=O)c1ccc(N2C(=S)N(c3ccc(C#N)c(C(F)(F)F)c3)C(=O)C2(C)C)cc1F [MDV3100 (Enzalutamide)]	yes
O=C(CCCCCCC(=O)Nc1ccccc1)NO [Vorinostat (SAHA)]	yes

* * *

Listing of recorded growth inhibition by drug plus 177Lu-lilotomab satetraxetan by entry.
System: RIVA
Test: growth inhibition by drug plus 177Lu-lilotomab satetraxetan (1 - RLU/untreated control) (fraction); higher = stronger inhibition
Settings: 10 nM; time (day): 5; 177Lu-lilotomab satetraxetan 0.5 ug/ml
Where a name gives a salt, the structure may show the parent alone.
measurementType: growth inhibition by drug plus 177Lu-lilotomab satetraxetan

molecule	value
O=C(NCCS(=O)(=O)c1ccc(C(F)(F)F)cn1)c1ccc(Cl)cc1	0.579
CCc1cc(-c2n[nH]c(C)c2-c2ccc3c(c2)OCCO3)c(O)cc1O	0.565
CN(C)CCCN=c1c2ccccc2n(C)c2[nH]c(=O)n(C)c(=O)c12	0.589
CCCCc1nc2cc(/C=C/C(=O)NO)ccc2n1CCN(CC)CC	0.693
CC[C@H]1OC(=O)[C@H](C)[C@@H](O[C@H]2C[C@@](C)(OC)[C@@H](O)[C@H](C)O2)[C@H](C)[C@@H](O[C@@H]2O[C@H](C)C[C@H](N(C)C)[C@H]2O)[C@](C)(O)C[C@@H](C)CN(C)[C@H](C)[C@@H](O)[C@]1(C)O [Azithromycin (Zithromax)]	0.633
Cc1ccc(NC(=O)c2ccc(CN3CCN(C)CC3)cc2)cc1Nc1nccc(-c2cccnc2)n1	0.568
Cc1ccc(S(=O)(=O)C=CC#N)cc1	0.522
O=C(O)CCc1ccc(NCc2cccc(Oc3ccccc3)c2)cc1	0.562
C[C@]1(c2nc3c(C(N)=O)cccc3[nH]2)CCCN1	0.516
O=NN(CCCl)C(=O)NC1CCCCC1	0.607
O=C1NC(=O)/C(=C\c2cccc(C(F)(F)F)c2)S1	0.492
CC1(C)CCC(c2ccc(Cl)cc2)=C(CN2CCN(c3ccc(C(=O)NS(=O)(=O)c4ccc(N[C@H](CCN5CCOCC5)CSc5ccccc5)c(S(=O)(=O)C(F)(F)F)c4)cc3)CC2)C1	0.605
Cc1cc(O)c2c(c1)C(=O)c1cccc(O)c1C2=O	0.511
CC(C)(C)c1cnc(CSc2cnc(NC(=O)C3CCNCC3)s2)o1	0.556
COc1cc2nccc(Oc3ccc(NC(=O)NC4CC4)c(Cl)c3)c2cc1C(N)=O	0.485
CCC(=O)N1CCN(c2ccc(-n3c(=O)ccc4cnc5ccc(-c6cnc7ccccc7c6)cc5c43)cc2C(F)(F)F)CC1	0.631
CNNCc1ccc(C(=O)NC(C)C)cc1 [Procarbazine hydrochloride (Matulane)]	0.596
CNC(=O)c1ccc(C)c(-n2c(C)cc(OCc3ccc(F)cc3F)c(Br)c2=O)c1	0.521
O=C(CCCCCCC(=O)Nc1ccccc1)NO [Vorinostat (SAHA)]	0.537
CC(C)[C@H](C(=O)Nc1ccc(C(=O)NO)cc1)c1ccccc1	0.602
Cc1c(C(=O)Nc2ccc(N3C[C@@H](C)O[C@@H](C)C3)nc2)cccc1-c1ccc(OC(F)(F)F)cc1	0.517
Nc1nc(OCc2cc(Br)cs2)c2[nH]cnc2n1	0.544
C#CCN(C)CC1=Cc2ccccc2Oc2ccccc21	0.628
O=c1[nH]cc(F)c(=O)[nH]1	0.54
CN(Cc1cnc2nc(N)nc(N)c2n1)c1ccc(C(=O)N[C@@H](CCC(=O)O)C(=O)O)cc1 [Abitrexate (Methotrexate)]	0.508
C[C@H](NC(=O)Cc1cc(F)cc(F)c1)C(=O)N[C@H](C(=O)OC(C)(C)C)c1ccccc1	0.549
CCOc1ccn(-c2ccc(F)cc2)c(=O)c1C(=O)Nc1ccc(Oc2ccnc(N)c2Cl)c(F)c1	0.657
OCCn1cc(-c2cnc3nnn(Cc4ccc5ncccc5c4)c3n2)cn1	0.599
Cc1nn(-c2ccccc2)c(C)c1C=NN1CCN(Cc2ccccc2)CC1	0.437
Nc1nccc(-c2ccc3noc(-c4ccc(Cl)cc4)c3c2)n1	0.607

Data origin, for the record: the supplement of paper PMC6897291
